Assay: NCI Yeast Anticancer Drug Screen. Data for the rad50 strain (AID 155);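 note: 0% = growth of vehicle-only cultures of the same strain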
Conditions: S. cerevisiae rad50 strain growth inhibition; at 50.0 µM
Compounds without any hit were thinned out: in the full panel of roughly 79,000, 15% have a hit. Activity calls are given as the source filed them. Cut-off read from the data, not from the text of the source: active = growth inhibition above about 70%; inactive = the rest.
Hi there, use one of these labels in your reply, thanks! TRUE (active), FALSE (inactive)

* Cc1ccc(-c2nc3ccccc3c(=O)n2/N=C/c2ccc(Cl)cc2Cl)cc1 | FALSE

Record request — test call for `N#CC(C#N)=C(N)/C(C#N)=C/c1ccc(O)c(O)c1`
FALSE

What would you report for `CC1(C)CC(=O)C(C(c2ccc3c(c2)CCC3)C2C(=O)CC(C)(C)CC2=O)C(=O)C1` ?
FALSE

Also, `O=[N+]([O-])c1ccc(S(=O)(=O)Nc2c([N+](=O)[O-])cc([N+](=O)[O-])c3ccccc23)cc1` please.
FALSE

// same read-out, input: `O=C(O)Cc1ccc(Br)cc1`
FALSE

Proceed to C[Si](C)(/C(=C/COCc1ccccc1)CCOC1CCCCO1)c1ccccc1 (stereo not given)
FALSE

Okay, and `CCOC(=O)NC(=O)c1cn(C2CCCCC2)c(=O)[nH]c1=O` ?
FALSE

Okay, and `c1ccc2c(c1)Cc1c(Cc3csc4ccccc34)ccc3cccc-2c13` ?
FALSE

Now the same for `COc1ccc2nc(C)cc(N/N=C/c3cccc(C)n3)c2c1`
FALSE

Lookup N#CN1CC[C@@H]2CC3(CCC2C1)OCCO3 (stereo not given in full)
FALSE

Can you check `O=S(=O)(O)CS(=O)(=O)O` next?
FALSE

Ok, now `CC1(c2ccccc2)SCCS1`
FALSE

`CCC1(CC)C(=O)NN(C(=O)c2ccccc2)C1=O` , same question.
FALSE

Record: `CCCCN(CCCC)C1=Nc2ccccc2-n2c(nnc2C(=O)OCC)C1`
FALSE

Same again, this time with O=C1c2ccccc2C(=O)N1CC(O)COCc1ccccc1 (stereo not given)
FALSE

Again, but for `CC(C)([NH-])C[NH-].O=C(O)CCO.[Pt+2]`
FALSE

Entry `CCC(=O)/C=C/c1cc(OC)c(OC)c(OC)c1` please
FALSE

Do the same for CCCCN1C(=O)C(CC(=O)OCC)SC1=S (stereo not given) please
FALSE

Then this molecule: CC(C)(C)[Si](C)(C)OC1CCOC1(O)c1ccccn1 (stereo not given)
FALSE

###

Test: NCI Yeast Anticancer Drug Screen. Data for the bub3 strain (AID 167)
Settings: S. cerevisiae bub3 mutant strain, at 50.0 µM, stronger effect = higher value
The panel holds about 79,000 compounds, 15% with a hit somewhere; the sample as a whole holds those more often.
Form field: growth inhibition (one value per entry).
Report the value in % with no unit label.

* CC(=O)Nc1ccc(S(=O)(=O)NC(=O)NCCC(C)C)cc1 | 8.6
* CC(/C=C/c1ccccc1)=N\N=C(C)\C=C\c1ccccc1 | -37.8
* CCc1cccc(C(C)C)c1NC(=O)C(=O)C1C(=O)Nc2ccccc2S1=O (centres undefined) | 2.4
* NS(=O)(=O)c1ccc(N=C2C=CC(=O)C=C2)cc1 | -4.05
* Cc1cn(C2CC(O)C(COC(N)=O)O2)c(=O)[nH]c1=O (centres undefined) | -44.3
* NC(=O)N/N=C1\CC2CCC1C2Cl (centres undefined) | -13.7
* O=C1C2Cc3ccccc3CN2C(=O)N1CN1CCN(CN2C(=O)C3Cc4ccccc4CN3C2=O)CC1 (centres undefined) | -28.6
* CCCCCCCCCCCCCCCC(=O)OCC(O)CO (centres undefined) | -11
* CCCCCCCCOCC1S(=O)(=O)OCCOS1(=O)=O | -24.4
* CC1(c2ccc3cccc(F)c3c2)OC(=O)c2ccccc21 (centres undefined) | -4.25

Reported growth inhibition, compound `O=C(c1ccccc1)C12CCC3CC(CC(C3)C1)C2` : ____
16.4

What about `Nc1cccc(Nc2nc3ccccc3nc2NS(=O)(=O)c2ccccc2)c1` ?
-2.5

Can you handle `CC(=O)Oc1ccc(C(c2ccccc2)c2ccccc2)c2ccccc12` next?
-52.8

Check `O=C(/C=C/c1ccc(Cl)c(Cl)c1)c1ccccc1` too.
35

And for CC1(C)N(/N=C/c2ccccc2)C(c2ccccc2)C(c2ccccc2)N1/N=C/c1ccccc1 (centres undefined) ?
2.65

###

Assay: NCI Yeast Anticancer Drug Screen. Data for the sgs1 mgt1 strain (AID 161);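 note: 0% = growth of cultures given vehicle only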
Conditions: S. cerevisiae sgs1 mgt1 strain, at 50.0 µM, stronger effect = higher value
Compounds without any hit were thinned out: in the full panel of roughly 79,000, 15% have a hit.
measured.endpoint: growth inhibition (%)
Dear colleague, please return just the value in %, with no unit written.

Below are worked cases with known answers.
- O=C(/N=C/c1c(O)c2ccccc2oc1=O)NC1CCCCC1: -25.9
- C[C@H](C(O)CC(=O)C(C)(C)O)[C@H]1CC[C@@]2(C)[C@@H]3CC[C@H]4C(C)(C)[C@@H](OC5OC(COC6OC(CO)C(O)C(O)C6O)C(O)C(O)C5O)CC[C@]4(C)C3=CC[C@]12C (stereo not given in full): -20.2
- Nc1ccccc1SC1CC(=O)N(c2cccc(Cl)c2)C1=O (stereo not given): -4.7
- Cc1cccc(C)c1NCC1CO1 (stereo not given): -6.3
- O=C(NCc1cccs1)OC1CC2CCC1C2 (stereo not given): 10.8

Now look at this entry.
Request the reported growth inhibition associated with NC1c2c(Br)sc(N3CCCC3)c2C(=O)C1O (stereo not given)
-5.25

###

Assay: NCI Yeast Anticancer Drug Screen. Data for the cln2 rad14 strain (AID 165);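 note: 0% = growth equal to vehicle treated cultures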
Conditions: S. cerevisiae cln2 rad14 strain, at 50.0 µM, stronger effect = higher value
About 79,000 compounds went through this panel and 15% of them were active in at least one assay; those are over-represented in the sample as a whole. Activity calls are given as the source filed them. No stated cut-off is given here; in the data, active means growth inhibition above about 70%; inactive means the rest.
Recorded measurements of growth inhibition, one per entry

Worked cases, growth inhibition given:
* CSc1nc(NC2OC(CO)C(O)C(O)C2O)cc(=O)[nH]1 (stereo not given) | -9.8% (inactive)
* O=c1c2cnc3cc(Cl)ccc3c2[nH]n1-c1ccc(Cl)cc1 | -2.55% (inactive)
* CCOC(=O)C(C(O)c1ccc([N+](=O)[O-])cc1)P(=O)(OCC)OCC (stereo not given) | 5.25% (inactive)

What growth inhibition value was documented for this molecule, O=C1CC2(CCC(O)(c3ccc(Cl)cc3)C(C(=O)c3ccc(Cl)cc3)C2)C(=O)c2ccccc2N1 (stereo not given) ?
-23.5% (inactive)

And what about the molecule `CCOC(=O)C(C(=O)OCC)=C1N[C@H](C(=O)OCC)CS1` ?
13% (inactive)

###

Assay: NCI Yeast Anticancer Drug Screen. Data for the cln2 rad14 strain (AID 165);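 note: 0% = growth equal to vehicle treated cultures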
Settings: S. cerevisiae cln2 rad14 strain, at 50.0 µM, stronger effect = higher value
About 79,000 compounds went through this panel and 15% of them were active in at least one assay; those are over-represented in the sample as a whole. Activity calls are given as the source filed them. Cut-off read from the data, not from the text of the source: active = growth inhibition above about 70%; inactive = the rest. Where a SMILES comes first, the peptide text is derived from it. [ ]: non-standard residue; d: D form. Abu = CC[CH](N)C(=O)O
growth inhibition reference

The following compounds have reported results that may help.
* CC(=O)Oc1ccc(/C=C/c2ccccn2)cc1 | -55.1% (inactive)
* Oc1cc2c(cc1C(c1ccc3c(c1)OCO3)N1CCCC1)OCO2 (centres undefined) | -27.6% (inactive)
* CC1=CC(=O)C(CCC#N)C(C)(C)C1 (centres undefined) | -36.9% (inactive)
* Cc1nn(CO)c(C)c1Br | 21.8% (inactive)
* CCOC(=O)c1cn2c(nc1=O)N[C@H]1CCCC[C@@H]12 | -2.45% (inactive)
* Cc1[nH]nc(-c2ccon2)c1N | -20.5% (inactive)
* CCOC(=O)c1ccc(NC(=O)/C=C/c2ccccc2)cc1 | -24.3% (inactive)
* C=CC1C(=O)N(C)[C@H](C(C)(C)C)N1C(=O)c1ccccc1 (some centres undefined) | -18.9% (inactive)

Consider the compound `CCOC(=O)c1ccc(NC(=S)N(CCC#N)C2CCCCC2)cc1` and give its measured growth inhibition.
27.1% (inactive)

Okay, and `Cc1cc(CSCCc2nc3ccccc3[nH]2)c(O)c(CSCCc2nc3ccccc3[nH]2)c1` ?
-42% (inactive)

Also need `O=C(O)C(Cc1cccs1)(Cc1cccs1)C(=O)O` , thanks.
-18.7% (inactive)

Okay, and `COC(=O)NCc1nc2cc3c[nH][nH]c3cc2n1` ?
-16% (inactive)

How about this compound: CCC(N)C(=O)NC(C(N)=O)C(C)C (centres undefined) (H-[Abu]-Val-NH2; configuration not given here)
-42.4% (inactive)

// next record `Cc1ccc(S(=O)(=O)CC(O)(C(C)C)C(C)C)cc1`
12.8% (inactive)

Please answer likewise for `NC(=O)ON=C1CCN(Cc2ccccc2)CC1`
18.9% (inactive)

Moving on to the next compound: `O=C1NC(=S)N/C1=C/c1ccc2c(c1)CCC2`
12.4% (inactive)

What would you report for `COc1cccc2sc(-n3c(C)nc4ccccc4c3=O)nc12` ?
17.9% (inactive)

Proceed to `O=C(Cl)c1c(F)c(F)c(F)c(F)c1F`
19.4% (inactive)

# repeat for O=C(Nc1ccc(Cl)cc1C(F)(F)F)C(=O)C1CCCS1(=O)=O (centres undefined)
12.9% (inactive)

Entry `Cc1nc(Nc2ccccc2C)c2ccsc2n1` please
75% (active)

Reference source for all entries: PubChem BioAssay (NCI)
